Value source: ChEMBL document CHEMBL3885881

Organism: Rattus norvegicus
method.summary: DrugMatrix - Regimen: Daily Repeat
Format: toxicity, organism-based, Sprague-Dawley
Design: regimen Daily Repeat, gender Male, age 6-8 weeks
applied.conditions: in vivo, sc, 0.5 mg/kg, 72 h, tissue Blood, route mini-PUMP - SUBCUTANEOUS, dose level High, time 3 day, vehicle 100 % SALINE
parameter: ABSOLUTE EOSINOPHIL (cells/µL)

* CC[C@H](C)[C@H](NC(=O)[C@H](Cc1ccc(O)cc1)NC(=O)[C@@H](NC(=O)[C@H](CCCNC(=N)N)NC(=O)[C@@H](N)CC(=O)O)C(C)C)C(=O)N[C@@H](Cc1cnc[nH]1)C(=O)N1CCC[C@H]1C(=O)N[C@@H](Cc1ccccc1)C(=O)O | 70

----------
Organism: Rattus norvegicus
method.summary: DrugMatrix - Regimen: Daily Repeat
Assay type: toxicity, organism-based, Sprague-Dawley
Design: regimen Daily Repeat, gender Male, age 6-8 weeks
applied.conditions: in vivo, po, 0 mg/kg, 72 h, tissue Blood, route oral GAVAGE, dose level Control, time 3 day, […]
parameter: LYMPHOCYTE (%)

• CCCCCCCCc1ccc(O)cc1 [4-OCTYLPHENOL] = 88.67
• CCOC(=O)C1=C(C)NC(C)=C(C(=O)OC)C1c1cccc([N+](=O)[O-])c1 (stereo not given) [NITRENDIPINE] = 90.33
• Cc1cccc(Nc2ccncc2S(=O)(=O)NC(=O)NC(C)C)c1 [TORSEMIDE] = 87.83
• C[C@]12CC[C@@H]3c4ccc(O)cc4CC[C@H]3[C@@H]1CC[C@@H]2O [ESTRADIOL] = 87.83
• Clc1ccc(Cl)cc1 [1,4-DICHLOROBENZENE] = 82.1
• O=C(O)Cc1ccccc1Nc1c(Cl)cccc1Cl [DICLOFENAC] = 89.17
• S=C=Nc1cccc2ccccc12 [1-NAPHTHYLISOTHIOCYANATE] = 89.67
• CC(C)Cc1ccc(C(C)C(=O)O)cc1 (stereo not given) [IBUPROFEN] = 86.33
• CC/C(=C(/CC)c1ccc(O)cc1)c1ccc(O)cc1 [DIETHYLSTILBESTROL] = 94.67
• CC(C)(Oc1ccc(C2CCCc3ccccc32)cc1)C(=O)O (stereo not given) [NAFENOPIN] = 86.17

----------
Species: Rattus norvegicus
method.summary: DrugMatrix - Regimen: Daily Repeat
Format: toxicity, organism-based, Sprague-Dawley
Parameters: regimen Daily Repeat, gender Male, age 6-8 weeks
applied.conditions: in vivo, po, 0 mg/kg, 120 h, tissue Blood, route oral GAVAGE, dose level Control, time 5 day, […]
parameter: ERYTHROCYTE COUNT (x10E6/uL)

• C[C@]12CC[C@@H]3c4ccc(O)cc4CC[C@H]3[C@@H]1CC[C@@H]2O = 5.25
• Cc1cccc(Nc2ccncc2S(=O)(=O)NC(=O)NC(C)C)c1 [TORSEMIDE] = 5.25
• CC(C)Cc1ccc(C(C)C(=O)O)cc1 (stereo unspecified) = 5.31
• CC(C)(Oc1ccc(C2CCCc3ccccc32)cc1)C(=O)O (stereo unspecified) = 5.48
• CC(=O)Nc1cccc(O)c1 = 5.5
• COCCOC(=O)C1=C(C)NC(C)=C(C(=O)OC(C)C)C1c1cccc([N+](=O)[O-])c1 (stereo unspecified) = 5.74

----------
Below is a list of entries, each paired with its recorded ABSOLUTE SEGMENTED NEUTROPHIL value.
Species: Rattus norvegicus
method.summary: DrugMatrix - Regimen: Daily Repeat
Assay type: toxicity, organism-based, Sprague-Dawley
Set-up: regimen Daily Repeat, gender Male, age 6-8 weeks
applied.conditions: in vivo, po, 10 mg/kg, 120 h, tissue Blood, route oral GAVAGE, dose level Low, time 5 day, […]
parameter: ABSOLUTE SEGMENTED NEUTROPHIL

• COc1ccc2cc([C@H](C)C(=O)O)ccc2c1 = 1493.67 CELLS/uL
• CC(C)CC(N(C)C)C1(c2ccc(Cl)cc2)CCC1 (centres undefined) = 1515.67 CELLS/uL
• COCCOC(=O)C1=C(C)NC(C)=C(C(=O)OC(C)C)C1c1cccc([N+](=O)[O-])c1 (centres undefined) = 1037.33 CELLS/uL
• CCOC(=O)C1=C(C)NC(C)=C(C(=O)OC)C1c1cccc([N+](=O)[O-])c1 (centres undefined) = 1038 CELLS/uL

----------
Species on record: Rattus norvegicus
method.summary: DrugMatrix - Regimen: Daily Repeat
Format: toxicity, organism-based, Sprague-Dawley
Design: regimen Daily Repeat, gender Male, age 6-8 weeks
applied.conditions: in vivo, po, 10 mg/kg, 72 h, tissue Blood, route oral GAVAGE, dose level Low, time 3 day, […]
Parameter: MEAN CORPUSCULAR HEMOGLOBIN CONCENTRATION. Scope: all listed entries.
parameter: MEAN CORPUSCULAR HEMOGLOBIN CONCENTRATION

* COc1ccc2cc([C@H](C)C(=O)O)ccc2c1 | 39.23 G/DL
* CCOC(=O)C1=C(C)NC(C)=C(C(=O)OC)C1c1cccc([N+](=O)[O-])c1 (centres undefined) | 38.4 G/DL
* COCCOC(=O)C1=C(C)NC(C)=C(C(=O)OC(C)C)C1c1cccc([N+](=O)[O-])c1 (centres undefined) | 39.2 G/DL
* CC(C)CC(N(C)C)C1(c2ccc(Cl)cc2)CCC1 (centres undefined) | 39.53 G/DL

----------
Species: Rattus norvegicus
method.summary: DrugMatrix - Regimen: Daily Repeat
Assay type: toxicity, organism-based, Sprague-Dawley
Set-up: regimen Daily Repeat, gender Male, age 6-8 weeks
applied.conditions: in vivo, po, 0 mg/kg, 120 h, tissue Blood, route oral GAVAGE, dose level Control, time 5 day, […]
parameter: MEAN CORPUSCULAR HEMOGLOBIN (pg)

• CC/C(=C(/CC)c1ccc(O)cc1)c1ccc(O)cc1 = 24.32
• C[C@H]1O[C@@H](O[C@H]2[C@@H](O)C[C@H](O[C@H]3[C@@H](O)C[C@H](O[C@H]4CC[C@@]5(C)[C@H](CC[C@@H]6[C@@H]5CC[C@]5(C)[C@@H](C7=CC(=O)OC7)CC[C@]65O)C4)O[C@@H]3C)O[C@@H]2C)C[C@H](O)[C@@H]1O = 23.83
• C[C@]12CC[C@@H]3c4ccc(O)cc4CC[C@H]3[C@@H]1CC[C@@H]2O = 25.7
• CC(C)Cc1ccc(C(C)C(=O)O)cc1 (stereo not drawn) = 24.93
• CC(=O)Nc1ccc(O)cc1 = 24.5
• Cc1cccc(Nc2ccncc2S(=O)(=O)NC(=O)NC(C)C)c1 [TORSEMIDE] = 25.7
• COCCOC(=O)C1=C(C)NC(C)=C(C(=O)OC(C)C)C1c1cccc([N+](=O)[O-])c1 (stereo not drawn) = 24.13
• Clc1ccc(Cl)cc1 = 21.57

----------
Organism: Rattus norvegicus
method.summary: DrugMatrix - Regimen: Daily Repeat
Type: toxicity, organism-based, Sprague-Dawley
Parameters: regimen Daily Repeat, gender Male, age 6-8 weeks
applied.conditions: in vivo, po, 0 mg/kg, 120 h, tissue Blood, route oral GAVAGE, dose level Control, time 5 day, vehicle .5 % CMC
Known ABSOLUTE EOSINOPHIL of a selection of compounds
parameter: ABSOLUTE EOSINOPHIL (CELLS/uL)

* CO[C@H]1/C=C/O[C@@]2(C)Oc3c(C)c(O)c4c(c3C2=O)C2=NC3(CCN(CC(C)C)CC3)NC2=C(NC(=O)/C(C)=C\C=C\[C@H](C)[C@H](O)[C@@H](C)[C@@H](O)[C@@H](C)[C@H](OC(C)=O)[C@@H]1C)C4=O | 23.33
* C[C@]1(Cn2ccnn2)[C@H](C(=O)O)N2C(=O)C[C@H]2S1(=O)=O | 148.67
* CC(C)[C@H]1CC[C@H](C(=O)N[C@H](Cc2ccccc2)C(=O)O)CC1 [NATEGLINIDE] | 67.33
* CNC(=C[N+](=O)[O-])NCCSCc1ccc(CN(C)C)o1 | 23.33
* OC(CCN1CCCCC1)(c1ccccc1)C1CCCCC1 (stereo not given) | 20.5
* Clc1ccc2c(c1)C(N1CCNCC1)=Nc1ccccc1O2 | 114.5
* C#C[C@]1(O)CC[C@H]2[C@@H]3CCc4cc(OC)ccc4[C@H]3CC[C@@]21C | 23.33
* CC(=O)CC(c1ccccc1)c1c(O)c2ccccc2oc1=O (stereo not given) | 190.67
* C[C@](O)(CS(=O)(=O)c1ccc(F)cc1)C(=O)Nc1ccc(C#N)c(C(F)(F)F)c1 [(R)-BICALUTAMIDE] | 69
* CN1C(=O)COc2c(C(=O)NC3CN4CCC3CC4)cc(Cl)cc21 (stereo not given) | 31

----------
Species: Rattus norvegicus
method.summary: DrugMatrix - Regimen: Daily Repeat
Format: toxicity, organism-based, Sprague-Dawley
Parameters: regimen Daily Repeat, gender Male, age 6-8 weeks
applied.conditions: in vivo, po, 0 mg/kg, 120 h, tissue Blood, route oral GAVAGE, dose level Control, time 5 day, […]
parameter: NEUTROPHIL (%)

- CC(=O)Nc1ccc(O)cc1 [ACETAMINOPHEN]: 9.67
- C[C@H]1O[C@@H](O[C@H]2[C@@H](O)C[C@H](O[C@H]3[C@@H](O)C[C@H](O[C@H]4CC[C@@]5(C)[C@H](CC[C@@H]6[C@@H]5CC[C@]5(C)[C@@H](C7=CC(=O)OC7)CC[C@]65O)C4)O[C@@H]3C)O[C@@H]2C)C[C@H](O)[C@@H]1O [DIGITOXIN]: 5.17
- Clc1ccc(Cl)cc1 [1,4-DICHLOROBENZENE]: 12.53
- CCOC(=O)C1=C(C)NC(C)=C(C(=O)OC)C1c1cccc([N+](=O)[O-])c1 (centres undefined) [NITRENDIPINE]: 10.33
